The reader will find reported OD450 at 0.1234568 ug/ml values listed item by item below.
# assayedTarget: T1, human LAG3 expressed on cells (human, UniProt P18627 23-525)
# T1 construct: whole, on cells
# T1 sequence (looked up): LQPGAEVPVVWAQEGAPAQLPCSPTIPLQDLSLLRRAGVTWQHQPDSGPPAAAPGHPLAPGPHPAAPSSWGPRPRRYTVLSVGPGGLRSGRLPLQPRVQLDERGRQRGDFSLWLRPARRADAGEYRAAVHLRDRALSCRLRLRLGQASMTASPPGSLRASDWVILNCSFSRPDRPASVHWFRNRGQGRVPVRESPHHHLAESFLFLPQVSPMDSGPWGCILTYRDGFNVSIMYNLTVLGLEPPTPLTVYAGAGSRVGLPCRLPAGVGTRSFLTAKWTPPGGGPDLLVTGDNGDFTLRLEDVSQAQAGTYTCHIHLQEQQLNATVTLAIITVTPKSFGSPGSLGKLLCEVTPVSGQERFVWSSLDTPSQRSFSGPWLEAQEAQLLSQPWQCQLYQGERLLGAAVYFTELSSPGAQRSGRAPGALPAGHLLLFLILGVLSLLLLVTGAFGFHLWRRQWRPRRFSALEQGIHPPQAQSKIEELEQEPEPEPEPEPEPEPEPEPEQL
# procedureDetails: cell ELISA, 293T-hLAG3 cells
# Description: Each well was treated with stimulants. The cells were then fixed and blocked with Blocking buffer. The Primary antibodies were added. The wells were washed and a HRP-conjugated secondary antibody was added. The wells were washed with 1x PBS and a solution containing TMB (Biopanda, TMB-S-004) was added. The TMB reacted with HRP to change the color thereof from colorless to blue. An acid stop solution (Solarbio, C1058) was then added to stop the reaction and change the blue color to yellow. […]
Just the number, please, no unit after it.

* sdAb No. 27-H2 (VHH, Modified sdAb No. 27 (CDR2 DG to EG); not shown: Fc part implied by anti-human IgG1 Fc detection) VHH: QVQLVESGGGLVQPGGSLRLSCAASGFTLDYYAIGWFRQAPGKEREGVSCIRSSEGSTYYADSVKGRFTISSDNTKNTVYLQMNSLKPEDTAVYYCATDRYSDCRGPYENWGQGTQVTVSS | 0.626
* sdAb No. 17-H2 (VHH, Modified sdAb No. 17 (CDR1 DG to EG); not shown: Fc part implied by anti-human IgG1 Fc detection) VHH: QLQLVESGGGLVQPGGSLRLSCAASGLTLEGYAIGWFRQAPGKEREGLACISGSDGSTHYLDSVKGRFTISRDNGKNTMALQMNSLQFGDTAIYYCAARRGSCSGSWTYWGQGTQVTVSS | 0.9
* sdAb No. 27 (VHH, Fc of the tested form not described; also called sdAb 27; not shown: Fc part implied by anti-human Fc capture and anti-human IgG Fc detection) VHH: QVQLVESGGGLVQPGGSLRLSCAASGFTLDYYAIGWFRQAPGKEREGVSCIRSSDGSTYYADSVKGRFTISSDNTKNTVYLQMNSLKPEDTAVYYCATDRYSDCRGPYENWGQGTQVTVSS | 0.79
* sdAb No. 17 (VHH, Fc of the tested form not described; also called sdAb 17; not shown: Fc part implied by anti-human Fc capture and anti-human IgG1 Fc detection) VHH: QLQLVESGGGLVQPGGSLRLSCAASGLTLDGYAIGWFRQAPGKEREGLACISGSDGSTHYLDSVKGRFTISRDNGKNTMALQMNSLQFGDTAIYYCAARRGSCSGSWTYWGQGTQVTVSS | 1.01
* sdAb No. 17-H1 (VHH, Modified sdAb No. 17 (CDR1 DG to DA); not shown: Fc part implied by anti-human IgG1 Fc detection) VHH: QLQLVESGGGLVQPGGSLRLSCAASGLTLDAYAIGWFRQAPGKEREGLACISGSDGSTHYLDSVKGRFTISRDNGKNTMALQMNSLQFGDTAIYYCAARRGSCSGSWTYWGQGTQVTVSS | 0.945

OD450 at 0.1234568 ug/ml for sdAb No. 27-H1 (VHH, Modified sdAb No. 27 (CDR2 DG to DA); not shown: Fc part implied by anti-human IgG1 Fc detection) VHH: QVQLVESGGGLVQPGGSLRLSCAASGFTLDYYAIGWFRQAPGKEREGVSCIRSSDASTYYADSVKGRFTISSDNTKNTVYLQMNSLKPEDTAVYYCATDRYSDCRGPYENWGQGTQVTVSS is 0.719

// OD450 at 0.1234568 ug/ml lookup, binder = sdAb No. 17-H3 (VHH, Modified sdAb No. 17 (CDR2 DG to DA); not shown: Fc part implied by anti-human IgG1 Fc detection) VHH: QLQLVESGGGLVQPGGSLRLSCAASGLTLDGYAIGWFRQAPGKEREGLACISGSDASTHYLDSVKGRFTISRDNGKNTMALQMNSLQFGDTAIYYCAARRGSCSGSWTYWGQGTQVTVSS , result: 0.818

Briefly, OD450 at 0.1234568 ug/ml measured for sdAb No. 17-H4 (VHH, Modified sdAb No. 17 (CDR2 DG to EG); not shown: Fc part implied by anti-human IgG1 Fc detection) VHH: QLQLVESGGGLVQPGGSLRLSCAASGLTLDGYAIGWFRQAPGKEREGLACISGSEGSTHYLDSVKGRFTISRDNGKNTMALQMNSLQFGDTAIYYCAARRGSCSGSWTYWGQGTQVTVSS : 0.745
